These measurements were taken from ChEMBL document CHEMBL1629686.

- Test system: Klebsiella pneumoniae
- protocolSummary: Activity of Klebsiella pneumoniae 1534 beta-lactamase KPC-2 T237A mutant by spectrophotometric analysis
measurementName: kcat (s⁻¹)
Report as a plain number; the unit s⁻¹ is understood.

Request: Name the reported kcat value associated with the molecule `O=C(Cc1cccs1)N[C@@H]1C(=O)N2C(C(=O)O)=C(/C=C/c3ccc([N+](=O)[O-])cc3[N+](=O)[O-])CS[C@H]12`
Response: 191

Request: Then `CCN1CCN(C(=O)N[C@@H](C(=O)N[C@@H]2C(=O)N3[C@@H]2SC(C)(C)[C@@H]3C(=O)O)c2ccccc2)C(=O)C1=O` ?
Response: 42

Request: Follow-up entry: `CC(=O)OCC1=C(C(=O)O)N2C(=O)[C@@H](NC(=O)Cc3cccs3)[C@H]2SC1`
Response: 26

Request: What would you report for C[C@@H](O)[C@H]1C(=O)N2C(C(=O)O)=C(SCCNC=N)C[C@H]12 [IMIPENEM ANHYDROUS] ?
Response: 6.8
